target: HIF1A; experiment: HeLa, 100 nM transfected, 24 h, mean of 3; conditions: ASO
Bases are written 5' to 3'; sugars and linkages follow in the same order, as letters with counts (s phosphorothioate, o phosphodiester; PS: all linkages phosphorothioate). C may stand for cytosine or 5-methylcytosine; the collection does not tell. l = locked nucleic acid (LNA); d = 2'-deoxy (DNA)
Criterion: caspase activation (% of PBS control) meeting or surpassing 200. Met: True. Not met: False.

Here are 5 sequences together with their reported answers.
| residue-sequence | group |
| --- | --- |
| TGGCAAGCATCCTGTA (sugars l4 d7 l5, PS) | True |
| GTTACTGCCTTCTTAC (sugars l1 d2 l2 d8 l3, PS) | True |
| TTACTGCCTTCTT (sugars l2 d10 l1, PS) | False |
| TGGCAAGCATCCTGTA (sugars l1 d11 l1 d2 l1, PS) | False |
| TGGCAAGCATCCTGTA (sugars llldldddddddlldl, PS) | True |

Problem: Could you verify whether the entry GGCAAGCATCCTG (sugars ldllddddddldl, PS) shows caspase activation (% of PBS control) of no less than 200?
Result: True

* * *

molecular target: HIF1A; assay: HeLa, 100 nM transfected, 24 h, mean of 3; details: ASO
Bases are written 5' to 3'; sugars and linkages follow in the same order, as letters with counts (s phosphorothioate, o phosphodiester; PS: all linkages phosphorothioate). C may stand for cytosine or 5-methylcytosine; the collection does not tell. l = locked nucleic acid (LNA); d = 2'-deoxy (DNA)
Attribute: caspase activation (% of PBS control)

// solved cases for caspase activation (% of PBS control) follow
| residue-sequence | caspase activation (% of PBS control) |
| --- | --- |
| GTTACTGCCTTCTTAC (sugars lddldddddddldlll, PS) | 154 |
| GTTACTGCCTTCTTAC (sugars l1 d2 l2 d9 l2, PS) | 149 |
| TGGCAAGCATCCTGTA (sugars ldddlddddddddldl, PS) | 139 |
| TGGCAAGCATCCTGTA (sugars lddldddddddldddl, PS) | 173 |

Turning to the following sequence.
Problem: Give reported caspase activation (% of PBS control) value for GTTACTGCCTTCTTAC (sugars l5 d7 l1 d2 l1, PS)
Result: 446

* * *

target: HIF1A; assay: HeLa, 100 nM transfected, 24 h, mean of 3; conditions: ASO
Bases are written 5' to 3'; sugars and linkages follow in the same order, as letters with counts (s phosphorothioate, o phosphodiester; PS: all linkages phosphorothioate). C may stand for cytosine or 5-methylcytosine; the collection does not tell. l = locked nucleic acid (LNA); d = 2'-deoxy (DNA)
Attribute: caspase activation (% of PBS control)

| residue-sequence | caspase activation (% of PBS control) |
| --- | --- |
| GTTACTGCCTTCTTAC (sugars ldllldddddddlddl, PS) | 461 |
| TGGCAAGCATCCT (sugars l1 d1 l1 d8 l2, PS) | 145 |
| GTTACTGCCTTCT (sugars l2 d1 l1 d8 l1, PS) | 133 |
| GTTACTGCCTTCTTAC (sugars l2 d9 l5, PS) | 328 |
| GTTACTGCCTTCTTAC (sugars llldldddddddlddl, PS) | 277 |

Problem: Give reported caspase activation (% of PBS control) value for GTTACTGCCTTCTTAC (sugars l4 d7 l1 d2 l2, PS)
Result: 255

Problem: Give reported caspase activation (% of PBS control) value for TGGCAAGCATCCTGTA (sugars lldllddddddldddl, PS)
Result: 385

Problem: Give reported caspase activation (% of PBS control) value for TGGCAAGCATCCTGTA (sugars ldddldddddddlddl, PS)
Result: 173

Problem: Give reported caspase activation (% of PBS control) value for TGGCAAGCATCCTGTA (sugars ldddlddddddlldll, PS)
Result: 285

Problem: Give reported caspase activation (% of PBS control) value for TGGCAAGCATCCT (sugars l1 d1 l2 d8 l1, PS)
Result: 327
